target: Hormone-sensitive lipase (Rattus norvegicus); test: Inhibition of rat hormone sensitive lipase assessed as oleic acid release from [3H]triolein by scintillation counting
The threshold is 30 µM. Values of IC50 beneath it are tagged T; values meeting or exceeding it are tagged F.

{"molecule": "CCCCCCCCCCCCCCCCCC[C@H]1CC[P@@](=O)(OC)OC(C)=C1C(=O)OC (relative stereo)", "label-class": "T"}
{"molecule": "CCCCCCCCCCCCCCCC[C@@H]1CC[P@@](=O)(OC)OC(C)=C1C(=O)OC (relative stereo)", "label-class": "F"}
{"molecule": "CCCCCCCCCCCC[C@@H]1CC[P@@](=O)(OC)OC(C)=C1C(=O)OC (relative stereo)", "label-class": "F"}
{"molecule": "CO[P@@]1(=O)CC[C@H]2COC(=O)C2=C(C)O1 (relative stereo)", "label-class": "F"}
{"molecule": "CCCCCCCCCCCCCCCCO[P@]1(=O)CC[C@H]2COC(=O)C2=C(C)O1 (racemic)", "label-class": "T"}
{"molecule": "CCCCCCCCCCCCCCCC[C@H]1CC[P@@](=O)(OC)OC(C)=C1C(=O)OC", "label-class": "T"}

###

target: Hormone-sensitive lipase (Rattus norvegicus, UniProt P15304)
pIC50: −log10 of the molar value.

{"molecule": "CCCCCCCCCCCCCCCO[P@]1(=O)OC[C@@H]2COC(=O)C2=C(C)O1 (racemic)", "readout-qualifier": "=", "pIC50": 6.05}
{"molecule": "CCCCCCCCCCCCCCCCOP1(=O)OC(C)=C(C(=O)OC)CCC1(F)F (stereo not given)", "readout-qualifier": "<", "pIC50": 4.00}
{"molecule": "CCCCCCCCCCCCCCCO[P@]1(=O)OC[C@H]2COC(=O)C2=C(C)O1 (racemic)", "readout-qualifier": "=", "pIC50": 7.12}
{"molecule": "CCCCCCCCCCCC[C@H]1CC[P@@](=O)(OC)OC(C)=C1C(=O)OC (relative stereo)", "readout-qualifier": "=", "pIC50": 4.87}
{"molecule": "CCCCCCCCCCCCCCCCO[P@]1(=O)CC[C@@H]2COC(=O)C2=C(C)O1 (racemic)", "readout-qualifier": "=", "pIC50": 5.16}

###

Listing of entries alongside the reported pIC50.
Target: Hormone-sensitive lipase (Rattus norvegicus)
Sequence (P15304 whole entry): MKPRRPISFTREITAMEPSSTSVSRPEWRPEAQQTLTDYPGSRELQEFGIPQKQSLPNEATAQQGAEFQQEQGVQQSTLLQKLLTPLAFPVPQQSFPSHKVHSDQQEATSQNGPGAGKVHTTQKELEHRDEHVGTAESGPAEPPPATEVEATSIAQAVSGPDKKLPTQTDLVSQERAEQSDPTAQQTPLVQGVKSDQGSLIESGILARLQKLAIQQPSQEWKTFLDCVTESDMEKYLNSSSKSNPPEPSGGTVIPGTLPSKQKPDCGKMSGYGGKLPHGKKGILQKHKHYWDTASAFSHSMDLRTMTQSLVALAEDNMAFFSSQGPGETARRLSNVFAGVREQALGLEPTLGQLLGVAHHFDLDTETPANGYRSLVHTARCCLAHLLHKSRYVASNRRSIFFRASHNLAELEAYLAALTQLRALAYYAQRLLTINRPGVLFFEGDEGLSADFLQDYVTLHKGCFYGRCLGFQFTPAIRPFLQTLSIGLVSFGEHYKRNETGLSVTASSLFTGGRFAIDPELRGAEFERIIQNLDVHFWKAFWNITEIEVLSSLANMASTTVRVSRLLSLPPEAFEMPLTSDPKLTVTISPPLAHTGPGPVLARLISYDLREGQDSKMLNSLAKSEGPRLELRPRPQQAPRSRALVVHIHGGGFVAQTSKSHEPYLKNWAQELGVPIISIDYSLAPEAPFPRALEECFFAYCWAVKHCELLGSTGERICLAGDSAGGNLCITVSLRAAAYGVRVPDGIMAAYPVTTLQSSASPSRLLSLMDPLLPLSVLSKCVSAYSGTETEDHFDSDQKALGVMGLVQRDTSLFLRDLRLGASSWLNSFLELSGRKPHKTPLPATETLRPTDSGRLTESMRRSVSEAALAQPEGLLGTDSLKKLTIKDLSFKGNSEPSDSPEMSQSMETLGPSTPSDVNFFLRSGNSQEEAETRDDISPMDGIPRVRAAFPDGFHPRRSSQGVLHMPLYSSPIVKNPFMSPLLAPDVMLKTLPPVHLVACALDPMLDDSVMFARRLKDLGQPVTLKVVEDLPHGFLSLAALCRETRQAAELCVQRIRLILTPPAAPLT
Experiment: Inhibition of rat hormone sensitive lipase assessed as oleic acid release from [3H]triolein by scintillation counting
pIC50: −log10 of the molar value.

{"compound": "CO[P@]1(=O)OC[C@@H]2COC(=O)C2=C(C)O1 (relative stereo)", "pIC50": "< 4.00"}
{"compound": "CO[P@]1(=O)OC[C@H]2COC(=O)C2=C(C)O1 (relative stereo) [CYCLOPHOSTIN]", "pIC50": "< 4.00"}
{"compound": "CCCCCCCCCCCCCCCCCC[C@@H]1CC[P@@](=O)(OC)OC(C)=C1C(=O)OC (relative stereo)", "pIC50": "< 4.00"}
